Target: Atu1419 (Agrobacterium fabrum)
Sequence (A9CJ36 1-244): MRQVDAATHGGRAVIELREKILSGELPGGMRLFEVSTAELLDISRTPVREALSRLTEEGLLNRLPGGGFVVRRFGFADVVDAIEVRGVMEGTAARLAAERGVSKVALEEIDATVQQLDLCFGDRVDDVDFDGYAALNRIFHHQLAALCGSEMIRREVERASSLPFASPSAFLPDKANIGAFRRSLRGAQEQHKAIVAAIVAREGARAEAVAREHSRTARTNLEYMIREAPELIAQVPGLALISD
Assay readout: Kd

# value lookup — system Atu1419 (Agrobacterium fabrum), readout Kd, item Nc1nc2c(c(=O)[nH]1)N1CN(c3ccc(C(=O)N[C@@H](CCC(=O)O)C(=O)O)cc3)C[C@H]1CN2 [MEF, N5,N10-methylenetetrahydrofolate]
~20 µM
